Each recorded value in this set is attributed to patent US5807535A.

Experiment: Biodistribution of 99mTc complexes in mice
Format: in vivo, Balb/c mice
Settings: 1 min
Here, each record is paired with measured biodistribution stomach data.
Answer format: numeric, % Injected dose implied, no suffix.

Reference set, count: 3
O=C(O)CN(CCN(CC(=O)O)CC(=O)Nc1ccc(Cl)cc1O)CC(=O)Nc1ccc(Cl)cc1O [Compound 2] ... 0.67
O=C(O)CN(CCN(CC(=O)O)CC(=O)Nc1ccccc1O)CC(=O)Nc1ccccc1O [Compound 1] ... 0.5
CC(C)(C)c1ccc(O)c(NC(=O)CN(CCN(CC(=O)O)CC(=O)Nc2cc(C(C)(C)C)ccc2O)CC(=O)O)c1 [Compound 4] ... 0.52

API: the following record is the query input.
Inquiry: Fill blank: measured biodistribution stomach of the compound Cc1cc(C)c(O)c(NC(=O)CN(CCN(CC(=O)O)CC(=O)Nc2cc(C)cc(C)c2O)CC(=O)O)c1 [Compound 6] is ____.
Reply text: 0.4

###

Assay: Biodistribution of 67Ga complexes in mice
Type: in vivo, balb/c mice
Conditions: 3 min
Here, each record is paired with measured biodistribution skin data.
Answer format: numeric, % ID implied, no suffix.

Reference set, count: 3
Cc1cc(C)c(O)c(NC(=O)CN(CCN(CC(=O)O)CC(=O)Nc2cc(C)cc(C)c2O)CC(=O)O)c1 ... 12.80
O=C(O)CN(CCN(CC(=O)O)CC(=O)Nc1ccccc1O)CC(=O)Nc1ccccc1O ... 13.76
CC(C)(C)c1ccc(O)c(NC(=O)CN(CCN(CC(=O)O)CC(=O)Nc2cc(C(C)(C)C)ccc2O)CC(=O)O)c1 ... 8.12

API: the following record is the query input.
Inquiry: Fill blank: measured biodistribution skin of the compound O=C(O)CN(CCN(CC(=O)O)CC(=O)Nc1ccc(Cl)cc1O)CC(=O)Nc1ccc(Cl)cc1O is ____.
Reply text: 9.27

###

Assay: Biodistribution of 67Ga complexes in mice
Format: in vivo, balb/c mice
Settings: 5 min
measured.endpoint: biodistribution bone (% ID)
Answer format: numeric, % ID implied, no suffix.

Reference set, count: 3
O=C(O)CN(CCN(CC(=O)O)CC(=O)Nc1ccccc1O)CC(=O)Nc1ccccc1O ... 2.83
CC(C)(C)c1ccc(O)c(NC(=O)CN(CCN(CC(=O)O)CC(=O)Nc2cc(C(C)(C)C)ccc2O)CC(=O)O)c1 ... 0.98
Cc1cc(C)c(O)c(NC(=O)CN(CCN(CC(=O)O)CC(=O)Nc2cc(C)cc(C)c2O)CC(=O)O)c1 ... 1.67

Inquiry: Fill blank: measured biodistribution bone of the compound O=C(O)CN(CCN(CC(=O)O)CC(=O)Nc1ccc(Cl)cc1O)CC(=O)Nc1ccc(Cl)cc1O is ____.
Reply text: 2.13

###

Assay: Biodistribution of 99mTc complexes in mice
Assay type: in vivo, Balb/c mice
Conditions: 30 min
Protocol: A series of derivatives incorporating carboxyl and phenolate donor groups (1-6) were synthesised by literature method and their radiolabelling characteristic and biological behaviour evaluated. […] A typical method of radiolabelling of the chelator was achieved by dissolving the chelator in a basic solution of saline. […] The efficacy of labelling was determined by ITLC-SG. […]
measured.endpoint: biodistribution bone (% Injected dose)
Answer format: numeric, % Injected dose implied, no suffix.

CC(C)(C)c1ccc(O)c(NC(=O)CN(CCN(CC(=O)O)CC(=O)Nc2cc(C(C)(C)C)ccc2O)CC(=O)O)c1 ... 1.67

Inquiry: Fill blank: measured biodistribution bone of the compound Cc1cc(C)c(O)c(NC(=O)CN(CCN(CC(=O)O)CC(=O)Nc2cc(C)cc(C)c2O)CC(=O)O)c1 is ____.
Reply text: 2.54

Inquiry: Fill blank: measured biodistribution bone of the compound O=C(O)CN(CCN(CC(=O)O)CC(=O)Nc1ccccc1O)CC(=O)Nc1ccccc1O is ____.
Reply text: 1.12

Inquiry: Fill blank: measured biodistribution bone of the compound O=C(O)CN(CCN(CC(=O)O)CC(=O)Nc1ccc(Cl)cc1O)CC(=O)Nc1ccc(Cl)cc1O is ____.
Reply text: 2.27
